test system: HIV in the HTLV-1 transformed cell line MT-4; assay: organism not typed; type: cell-based; conditions: MT4, 96 h, MT-4 cells; luciferase/cell titer glo readout after 96 hours; 10 point dose response
Measured pIC50 by item
Scale note: pIC50 = -log10(concentration in M).

COMPOUND	pIC50
Cc1c(-c2c(C)c3c(c(C)c2[C@H](OC(C)(C)C)C(=O)O)CN(C(=O)N2CCC(F)(F)C2)C3)ccc2c1NCCO2 (atropisomer, axis not shown; (M))	8.22
COCCN(C)C(=O)N1Cc2c(C)c(-c3ccc(C)cc3)c([C@H](OC(C)(C)C)C(=O)O)c(C)c2C1	7.36
Cc1c(-c2c(C)c3c(c(C)c2[C@H](OC(C)(C)C)C(=O)O)CN(c2nnc(-c4cccc(F)c4)o2)C3)cc(F)c2c1CCCO2 (atropisomer, axis not shown; (M))	6.41
Cc1ccc(-c2c(C)c3c(c(C)c2[C@H](OC(C)(C)C)C(=O)O)CN(C(=O)N2CC[C@@H](F)C2)C3)cc1	7.85

With those in mind, consider the next compound.
Prompt: # value lookup — system HIV in the HTLV-1 transformed cell line MT-4, readout pIC50, item Cc1ccc(-c2c(C)c3c(c(C)c2[C@H](OC(C)(C)C)C(=O)O)CN(C(=O)c2cccc(Cl)c2)C3)cc1
Completion: 8.40

----------
system: HIV in the HTLV-1 transformed cell line MT-4; assay: organism not typed; assay type: cell-based; conditions: MT-4 cells; luciferase/cell titer glo readout after 96 hours; 10 point dose response
MEASUREMENT_LABEL: pIC50
Scale note: pIC50 = -log10(concentration in M).

Please review the entries below; each comes with its answer.
COMPOUND	TARGET_OR_TEST_SYSTEM	VALUE_REPORTED
Cc1ccc(-c2c(C)c3c(c(C)c2[C@H](OC(C)(C)C)C(=O)O)CN(C(=O)N2CCCCC2)C3)c(Cl)c1 [Example 316]	HIV in the HTLV-1 transformed cell line MT-4	7.39
Cc1ccc(-c2c(C)c3c(c(C)c2[C@H](OC(C)(C)C)C(=O)O)CN(C(=O)c2nccn2C)C3)cc1 [Example 239]	HIV in the HTLV-1 transformed cell line MT-4	7.80
Cc1ccc(-c2c(C)c3c(c(C)c2[C@H](OC(C)(C)C)C(=O)O)CN([C@@H]2CCC[C@@H](C)C2)C3)cc1 [Example 37]	HIV in the HTLV-1 transformed cell line MT-4	6.14

With those in mind, consider the next compound.
Prompt: # value lookup — system HIV in the HTLV-1 transformed cell line MT-4, readout pIC50, item Cc1c(-c2c(C)c3c(c(C)c2[C@H](OC(C)(C)C)C(=O)O)CN(C(=O)c2cccc(F)c2)C3)ccc2c1NCCO2 [Example 311]
Completion: 7.82

----------
tested on: HIV in the HTLV-1 transformed cell line MT-4; assay: organism not typed; format: cell-based; details: MT4, 96 h, MT-4 cells; luciferase/cell titer glo readout after 96 hours; 10 point dose response
Measured log10 of IC50 by item
Heads up, the numbers here are log10 of IC50 in nM units.

MOLECULE	VALUE_REPORTED
Cc1ccc(CN2Cc3c(C)c(-c4ccc(C)cc4)c([C@H](OC(C)(C)C)C(=O)O)c(C)c3C2)cc1	2.06
Cc1ccc(-c2c(C)c3c(c(C)c2[C@H](OC(C)(C)C)C(=O)O)CN(C(=O)c2cccc(C)c2)C3)cc1	0.70

Prompt: # value lookup — system HIV in the HTLV-1 transformed cell line MT-4, readout log10 of IC50, item Cc1ccc(-c2c(C)c3c(c(C)c2[C@H](OC(C)(C)C)C(=O)O)CN(C(=O)N2CCNCC2)C3)cc1
Completion: 3.06

Prompt: # value lookup — system HIV in the HTLV-1 transformed cell line MT-4, readout log10 of IC50, item Cc1c(-c2c(C)c3c(c(C)c2[C@H](OC(C)(C)C)C(=O)O)CN(C(=O)N2CCC(F)(F)CC2)C3)cc(F)c2c1CCCO2 (atropisomer, axis not shown; (M))
Completion: 0.48

Prompt: # value lookup — system HIV in the HTLV-1 transformed cell line MT-4, readout log10 of IC50, item COc1ccc(F)c(C(=O)N2Cc3c(C)c(-c4ccc(C)cc4)c([C@H](OC(C)(C)C)C(=O)O)c(C)c3C2)c1
Completion: 0.70

----------
tested on: HIV in the HTLV-1 transformed cell line MT-4; assay: organism not typed; format: cell-based; details: MT4, 96 h, MT-4 cells; luciferase/cell titer glo readout after 96 hours; 10 point dose response
pIC50: −log10 of the molar value.
Assign Criterion met to entries whose pIC50 meets or exceeds 8; assign Criterion not met to the rest.

COMPOUND	ASSIGNED_LABEL
Cc1c2c(c(C)c([C@H](OC(C)(C)C)C(=O)O)c1-c1ccc3c(c1)CCCO3)CN(C(=O)c1cccc(F)c1)C2	Criterion met
Cc1ccc(-c2c(C)c3c(c(C)c2[C@H](OC(C)(C)C)C(=O)O)CN(Cc2ccc(F)cc2)C3)cc1	Criterion not met
COc1ccccc1C(=O)N1Cc2c(C)c(-c3ccc(C)cc3)c([C@H](OC(C)(C)C)C(=O)O)c(C)c2C1	Criterion met
COc1cncc(C(=O)N2Cc3c(C)c(-c4cc(F)c5c(c4C)CCCO5)c([C@H](OC(C)(C)C)C(=O)O)c(C)c3C2)c1 (atropisomer, axis not shown; (M))	Criterion met
COc1cc(C(=O)N2Cc3c(C)c(-c4ccc(C)cc4)c([C@H](OC(C)(C)C)C(=O)O)c(C)c3C2)ccc1F	Criterion met

Prompt: Item Cc1ccc(-c2c(C)c3c(c(C)c2[C@H](OC(C)(C)C)C(=O)O)CN(CC2CCCN2C(=O)OC(C)(C)C)C3)cc1 (stereo partly shown) with pIC50 of 8 or above?
Completion: Criterion not met

Prompt: Item Cc1c(F)cccc1C(=O)N1Cc2c(C)c(-c3cc(F)c4c(c3C)CCCO4)c([C@H](OC(C)(C)C)C(=O)O)c(C)c2C1 (atropisomer, axis not shown; (M)) with pIC50 of 8 or above?
Completion: Criterion met

Prompt: Item Cc1cccc(C(=O)N2Cc3c(C)c(-c4cc(F)c5c(c4C)CCCO5)c([C@H](OC(C)(C)C)C(=O)O)c(C)c3C2)c1 (atropisomer, axis not shown; (M)) with pIC50 of 8 or above?
Completion: Criterion met

Prompt: Item Cc1c2c(c(C)c([C@H](OC(C)(C)C)C(=O)O)c1-c1ccc3c(c1)CCCO3)CN(C(=O)N1CCC(F)(F)C1)C2 with pIC50 of 8 or above?
Completion: Criterion met

----------
tested on: HIV in the HTLV-1 transformed cell line MT-4; test: organism not typed; assay type: cell-based; conditions: MT4, 96 h, MT-4 cells; luciferase/cell titer glo readout after 96 hours; 10 point dose response
Measured IC50 by item
Write it as a number; the unit nM goes unstated.

Please review the entries below; each comes with its answer.
COMPOUND	TARGET_OR_TEST_SYSTEM	IC50 [nM]
Cc1c(-c2c(C)c3c(c(C)c2[C@H](OC(C)(C)C)C(=O)O)CN(C(=O)N2CCCCC2)C3)cc(F)c2c1CCCO2 (atropisomer, axis not shown; (M))	HIV in the HTLV-1 transformed cell line MT-4	3
Cc1ccc(-c2c(C)c3c(c(C)c2[C@H](OC(C)(C)C)C(=O)O)CN(C(=O)C(C)(C)C)C3)cc1	HIV in the HTLV-1 transformed cell line MT-4	36
Cc1ccc(-c2c(C)c3c(c(C)c2[C@H](OC(C)(C)C)C(=O)O)CN(Cc2cccc(F)c2F)C3)cc1	HIV in the HTLV-1 transformed cell line MT-4	40
Cc1ccc(-c2c(C)c3c(c(C)c2[C@H](OC(C)(C)C)C(=O)O)CN(C(=O)c2cccc4ccoc24)C3)cc1	HIV in the HTLV-1 transformed cell line MT-4	4
Cc1c(-c2c(C)c3c(c(C)c2[C@H](OC(C)(C)C)C(=O)O)CN(C(=O)Oc2ccccc2)C3)cc(F)c2c1CCCO2 (atropisomer, axis not shown; (M))	HIV in the HTLV-1 transformed cell line MT-4	12

Prompt: # lookup: IC50 of Cc1ccc(-c2c(C)c3c(c(C)c2[C@H](OC(C)(C)C)C(=O)O)CN(C(=O)c2cccc(B(O)O)c2)C3)cc1
Completion: 134

----------
test system: HIV in the HTLV-1 transformed cell line MT-4; test: organism not typed; format: cell-based; details: MT4, 96 h, MT-4 cells; luciferase/cell titer glo readout after 96 hours; 10 point dose response
Measured IC50 by item
Write it as a number; the unit nM goes unstated.

Prompt: # lookup: IC50 of COc1cc(C(=O)N2Cc3c(C)c(-c4cc(F)c5c(c4C)CCCO5)c([C@H](OC(C)(C)C)C(=O)O)c(C)c3C2)ccc1F (atropisomer, axis not shown; (M)) [Example 180]
Completion: 4

Prompt: # lookup: IC50 of Cc1ccc(-c2c(C)c3c(c(C)c2[C@H](OC(C)(C)C)C(=O)O)CN(C(=O)c2ccccc2)C3)cc1 [Example 229]
Completion: 5

Prompt: # lookup: IC50 of Cc1c(-c2c(C)c3c(c(C)c2[C@H](OC(C)(C)C)C(=O)O)CN(C(=O)N2CCC(F)(F)C2)C3)cc(F)c2c1NCCO2 [Example 315]
Completion: 15

The origin of these recorded values is patent US10112899B2.
